- Tested on: all PDE isoforms
- assay text: HTS using all PDE isoforms as targets
- Format: biochemical
- measurement context: across PDE isoforms, FIG. 31; read-out: inhibition value of each isoform, lowest
pIC50: −log10 of the molar value.
reported endpoint: pIC50

Problem: Could you please provide reported pIC50 for Oc1cc(O)cc(/C=C/c2ccc(O)c(O)c2)c1 ? Thanks!
Result: ≤ 9.52

meta.source: patent US20210220340A1
